# Lookup of reported IC50 keyed by entry
# Tested On: Epidermal growth factor receptor (Homo sapiens, UniProt P00533)
# Sequence (P00533 whole entry): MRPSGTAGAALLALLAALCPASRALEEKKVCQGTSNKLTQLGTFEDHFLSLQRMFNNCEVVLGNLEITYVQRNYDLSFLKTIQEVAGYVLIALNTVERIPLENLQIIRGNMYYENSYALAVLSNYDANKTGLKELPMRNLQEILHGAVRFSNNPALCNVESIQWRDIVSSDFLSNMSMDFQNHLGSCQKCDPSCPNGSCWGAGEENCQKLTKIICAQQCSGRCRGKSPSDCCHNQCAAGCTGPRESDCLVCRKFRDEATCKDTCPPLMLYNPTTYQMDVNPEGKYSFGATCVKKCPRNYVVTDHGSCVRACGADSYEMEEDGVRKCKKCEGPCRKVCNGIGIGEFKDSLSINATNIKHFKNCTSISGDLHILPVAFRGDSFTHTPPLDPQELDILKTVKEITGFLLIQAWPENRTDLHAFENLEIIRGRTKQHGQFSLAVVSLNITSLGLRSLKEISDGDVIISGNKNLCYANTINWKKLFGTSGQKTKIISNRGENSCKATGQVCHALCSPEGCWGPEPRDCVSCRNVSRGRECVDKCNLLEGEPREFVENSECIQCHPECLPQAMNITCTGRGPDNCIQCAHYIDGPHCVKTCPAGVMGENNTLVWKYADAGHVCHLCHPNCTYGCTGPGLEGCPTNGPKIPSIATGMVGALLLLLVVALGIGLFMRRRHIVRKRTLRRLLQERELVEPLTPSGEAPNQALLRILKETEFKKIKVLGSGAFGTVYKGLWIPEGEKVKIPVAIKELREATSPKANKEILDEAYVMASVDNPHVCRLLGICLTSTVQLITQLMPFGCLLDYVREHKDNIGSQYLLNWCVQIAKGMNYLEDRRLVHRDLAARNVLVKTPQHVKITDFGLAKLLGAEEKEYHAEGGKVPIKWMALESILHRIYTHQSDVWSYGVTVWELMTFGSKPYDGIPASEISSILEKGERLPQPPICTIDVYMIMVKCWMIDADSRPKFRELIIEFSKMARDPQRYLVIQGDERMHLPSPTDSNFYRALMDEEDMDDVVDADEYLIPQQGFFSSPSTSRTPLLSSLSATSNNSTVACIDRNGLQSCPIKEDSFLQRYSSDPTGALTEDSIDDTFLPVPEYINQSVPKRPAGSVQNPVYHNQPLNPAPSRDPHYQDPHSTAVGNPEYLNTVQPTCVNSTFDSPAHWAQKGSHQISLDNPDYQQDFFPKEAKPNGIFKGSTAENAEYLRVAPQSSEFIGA
# Assay Overview: Inhibition of EGF-stimulated tyrosine phosphorylation in A431 cells.

Here are 2 compounds together with their reported answers.
INSERT INTO results (smiles, val) VALUES
  ('Clc1cccc(Nc2[nH]nc3ncnc(Oc4cccc(Cl)c4)c23)c1', '> 100 µM'),
  ('O=[N+]([O-])c1cccc(-c2[nH]nc3ncnc(Nc4cccc(Cl)c4)c23)c1', '> 100 µM');

Next up:
Data request: Dear colleague, I am looking for the recorded IC50 of the following compound: "Clc1cccc(Nc2[nH]nc3ncnc(Nc4cccc(Br)c4)c23)c1"
Data returned: < 0.8 µM

###

log10(IC50) data for Epidermal growth factor receptor (Homo sapiens, UniProt P00533) follow.
Lab note - IC50 converted to log10 from values in nM.

Here are 5 compounds together with their reported answers.
INSERT INTO assay_data (smiles, val) VALUES
  ('CC(C)(C)OC(=O)Nc1ccc(-c2[nH]nc3ncnc(Nc4cccc(Cl)c4)c23)cc1', 2.43),
  ('Clc1cccc(Nc2[nH]nc3ncnc(Oc4cccc(Cl)c4)c23)c1', 4.38),
  ('Oc1ccc(Nc2[nH]nc3ncnc(Nc4cccc(Cl)c4)c23)cc1', 0.90),
  ('Nc1[nH]cnc2nnc(Nc3cccc(Cl)c3)c1-2', 2.20),
  ('Cc1c(C)n(C)c2ncnc(Nc3cccc(Cl)c3)c12', 5.65);

Data request: Dear colleague, I am looking for the recorded log10(IC50) of the following compound: "Oc1cccc(Nc2[nH]nc3ncnc(Nc4cccc(Cl)c4)c23)c1"
Data returned: 0.00

Data request: Dear colleague, I am looking for the recorded log10(IC50) of the following compound: "COc1cccc(CNc2[nH]nc3ncnc(Nc4cccc(Cl)c4)c23)c1"
Data returned: 0.90

Data request: Dear colleague, I am looking for the recorded log10(IC50) of the following compound: "Clc1cccc(Nc2ncnc3n[nH]c(Nc4cccc(Cl)c4)c23)c1"
Data returned: 2.52

Data request: Dear colleague, I am looking for the recorded log10(IC50) of the following compound: "Clc1cccc(Nc2[nH]nc3ncnc(Nc4ccccc4)c23)c1"
Data returned: 1.92

Data request: Dear colleague, I am looking for the recorded log10(IC50) of the following compound: "Cc1c(C)n(-c2ccccc2)c2ncnc(N)c12"
Data returned: 3.43

Data request: Dear colleague, I am looking for the recorded log10(IC50) of the following compound: "Nc1ncnc2c1ncn2-c1ccccc1"
Data returned: 4.18

Data request: Dear colleague, I am looking for the recorded log10(IC50) of the following compound: "Nc1nc(N)c2c(Nc3cccc(Cl)c3)[nH]nc2n1"
Data returned: 2.34

Data request: Dear colleague, I am looking for the recorded log10(IC50) of the following compound: "CN(C)c1ccc(Nc2[nH]nc3ncnc(Nc4cccc(Cl)c4)c23)cc1"
Data returned: 1.46

Data request: Dear colleague, I am looking for the recorded log10(IC50) of the following compound: "Clc1cccc(Nc2[nH]nc3ncnc(Nc4cccc(Br)c4)c23)c1"
Data returned: 2.11

Data request: Dear colleague, I am looking for the recorded log10(IC50) of the following compound: "COc1ccc(CNc2[nH]nc3ncnc(Nc4cccc(Cl)c4)c23)cc1"
Data returned: 0.85

Data request: Dear colleague, I am looking for the recorded log10(IC50) of the following compound: "Nc1ccc(-c2[nH]nc3ncnc(Nc4cccc(Cl)c4)c23)cc1"
Data returned: 0.30

Data request: Dear colleague, I am looking for the recorded log10(IC50) of the following compound: "O=[N+]([O-])c1cccc(-c2[nH]nc3ncnc(Nc4cccc(Cl)c4)c23)c1"
Data returned: 2.43

Data request: Dear colleague, I am looking for the recorded log10(IC50) of the following compound: "Clc1cccc(Nc2[nH]nc3ncnc(NCc4ccccc4)c23)c1"
Data returned: 2.94

Data request: Dear colleague, I am looking for the recorded log10(IC50) of the following compound: "COc1ccc(-c2[nH]nc3ncnc(Nc4cccc(Cl)c4)c23)cc1"
Data returned: 1.98

Data request: Dear colleague, I am looking for the recorded log10(IC50) of the following compound: "COc1cccc(Nc2[nH]nc3ncnc(Nc4cccc(Cl)c4)c23)c1"
Data returned: 0.90

Source of measurements: ChEMBL document CHEMBL1130217
